# System: SARS-CoV-2
# Assay procedure: Antiviral assay in infected Vero E6 cells (ATP quantification, Cell Titer Glo)
# Measurement parameters: Severe acute respiratory syndrome coronavirus 2, Vero C1008, 72 h, read-out: Antiviral Activity, 10 uM (cell viability assay), 10 uM; Vero E6 cells, MOI 0.05, 72 h

>  <Compound>
Cc1ccc(NC2CCNCC2)cc1C(=O)N[C@H](C)c1cccc(-c2ccc(CNC(=O)CCCCNC(=O)COc3ccc(C4CCC(=O)NC4=O)cc3)s2)c1 (stereo partly shown) [Compound C10778F]

>  <Target desc>
SARS-CoV-2

>  <inhibition at 10 µM>
< 25%

$$$$
>  <Compound>
C[C@H](c1cccc2ccccc12)N1CCC(C(=O)NCc2cc(F)cc(NC(=O)N3CCN(CCCCCCNC(=O)COc4ccc(C5CCC(=O)NC5=O)cc4)CC3)c2)CC1 (stereo partly shown)

>  <Target desc>
SARS-CoV-2

>  <inhibition at 10 µM>
< 75%

$$$$
>  <Compound>
Cc1ccc(NC(=O)CCOCCOCCOCCNc2cccc3c2C(=O)N(C2CCC(=O)NC2=O)C3=O)cc1C(=O)N[C@H](C)c1cccc2ccccc12 (stereo partly shown)

>  <Target desc>
SARS-CoV-2

>  <inhibition at 10 µM>
< 0%

$$$$
>  <Compound>
C[C@H](c1cccc2ccccc12)N1CCC(C(=O)NCc2cc(F)cc(NC(=O)N3CCN(CCCCCCCCOc4ccc5c(c4)C(=O)N(C4CCC(=O)NC4=O)C5=O)CC3)c2)CC1 (stereo partly shown)

>  <Target desc>
SARS-CoV-2

>  <inhibition at 10 µM>
< 50%

$$$$
>  <Compound>
Cc1ccc(NC(=O)CCOCCOCCOCCNc2ccc3c4c(cccc24)C(=O)N(C2CCC(=O)NC2=O)C3=O)cc1C(=O)N[C@H](C)c1cccc2ccccc12 (stereo partly shown)

>  <Target desc>
SARS-CoV-2

>  <inhibition at 10 µM>
< 0%

$$$$
>  <Compound>
Cc1ccc(NC2CCNCC2)cc1C(=O)N[C@H](C)c1cccc(-c2ccc(CNC(=O)CCCCCNC(=O)COc3ccc(C4CCC(=O)NC4=O)cc3)s2)c1 (stereo partly shown) [Compound C10778G]

>  <Target desc>
SARS-CoV-2

>  <inhibition at 10 µM>
< 25%

$$$$
>  <Compound>
Cc1ccc(NC(=O)CCCCNc2cccc3c2C(=O)N(C2CCC(=O)NC2=O)C3=O)cc1C(=O)N[C@H](C)c1cccc2ccccc12 (stereo partly shown)

>  <Target desc>
SARS-CoV-2

>  <inhibition at 10 µM>
< 0%

$$$$
>  <Compound>
C[C@H](c1cccc2ccccc12)N1CCC(C(=O)NCc2cc(F)cc(NC(=O)N3CCN(CCCCNC(=O)COc4ccc(N5CCC(=O)NC5=O)cc4)CC3)c2)CC1

>  <Target desc>
SARS-CoV-2

>  <inhibition at 10 µM>
< 0%

$$$$
>  <Compound>
Cc1ccc(NC(=O)CCCCCCCCC(=O)N[C@H](C(=O)N2C[C@H](O)C[C@H]2C(=O)NCc2ccc(-c3scnc3C)cc2)C(C)(C)C)cc1C(=O)N[C@H](C)c1cccc2ccccc12

>  <Target desc>
SARS-CoV-2

>  <inhibition at 10 µM>
< 0%

$$$$
>  <Compound>
C[C@H](c1cccc2ccccc12)N1CCC(C(=O)NCc2cc(F)cc(NC(=O)N3CCN(CCOCCOCCC(=O)N4CCN(c5ccc(C6CCC(=O)NC6=O)cc5)CC4)CC3)c2)CC1 (stereo partly shown)

>  <Target desc>
SARS-CoV-2

>  <inhibition at 10 µM>
< 25%

$$$$
>  <Compound>
C[C@H](c1cccc2ccccc12)N1CCC(C(=O)NCc2cc(F)cc(NC(=O)N3CCN(CCNC(=O)COc4ccc(C5CCC(=O)NC5=O)cc4)CC3)c2)CC1 (stereo partly shown)

>  <Target desc>
SARS-CoV-2

>  <inhibition at 10 µM>
< 25%

$$$$
>  <Compound>
Cc1ccc(NC2CCNCC2)cc1C(=O)N[C@H](C)c1cccc(-c2ccc(CNC(=O)CCCCCNc3ccc4c(c3)C(=O)N(C3CCC(=O)NC3=O)C4=O)s2)c1 (stereo partly shown) [Compound C10778D]

>  <Target desc>
SARS-CoV-2

>  <inhibition at 10 µM>
< 0%

$$$$
>  <Compound>
Cc1ccc(NC(=O)CCCCC(=O)N[C@H](C(=O)N2C[C@H](O)C[C@H]2C(=O)NCc2ccc(-c3scnc3C)cc2)C(C)(C)C)cc1C(=O)N[C@H](C)c1cccc2ccccc12

>  <Target desc>
SARS-CoV-2

>  <inhibition at 10 µM>
< 0%

$$$$
>  <Compound>
C[C@H](c1cccc2ccccc12)N1CCC(C(=O)NCc2cc(F)cc(NC(=O)N3CCN(CCCCOc4cccc5c4C(=O)N(C4CCC(=O)NC4=O)C5=O)CC3)c2)CC1 (stereo partly shown)

>  <Target desc>
SARS-CoV-2

>  <inhibition at 10 µM>
< 0%

$$$$
>  <Compound>
C[C@H](c1cccc2ccccc12)N1CCC(C(=O)NCc2cc(F)cc(NC(=O)N3CCN(CC4CCN(c5ccc6c(c5)C(=O)N(C5CCC(=O)NC5=O)C6=O)CC4)CC3)c2)CC1 (stereo partly shown)

>  <Target desc>
SARS-CoV-2

>  <inhibition at 10 µM>
< 25%

$$$$
>  <Compound>
Cc1ccc(NC(=O)CCCCCCC(=O)N[C@H](C(=O)N2C[C@H](O)C[C@H]2C(=O)NCc2ccc(-c3scnc3C)cc2)C(C)(C)C)cc1C(=O)N[C@H](C)c1cccc2ccccc12

>  <Target desc>
SARS-CoV-2

>  <inhibition at 10 µM>
< 0%

$$$$
>  <Compound>
C[C@H](c1cccc2ccccc12)N1CCC(C(=O)NCc2cc(F)cc(NC(=O)N3CCN(CCOc4cccc5c4C(=O)N(C4CCC(=O)NC4=O)C5=O)CC3)c2)CC1 (stereo partly shown)

>  <Target desc>
SARS-CoV-2

>  <inhibition at 10 µM>
< 25%

$$$$
>  <Compound>
C[C@H](c1cccc2ccccc12)N1CCC(C(=O)NCc2cc(F)cc(NC(=O)N3CCN(CCCCC(=O)N4CCN(c5ccc(C6CCC(=O)NC6=O)cc5)CC4)CC3)c2)CC1 (stereo partly shown)

>  <Target desc>
SARS-CoV-2

>  <inhibition at 10 µM>
< 25%

$$$$
>  <Compound>
Cc1ccc(NC(=O)CCOCCOCCNc2ccc3c4c(cccc24)C(=O)N(C2CCC(=O)NC2=O)C3=O)cc1C(=O)N[C@H](C)c1cccc2ccccc12 (stereo partly shown)

>  <Target desc>
SARS-CoV-2

>  <inhibition at 10 µM>
< 0%

$$$$
>  <Compound>
C[C@H](c1cccc2ccccc12)N1CCC(C(=O)NCc2cc(F)cc(NC(=O)N3CCN(CCCCCCCCOc4cccc5c4C(=O)N(C4CCC(=O)NC4=O)C5=O)CC3)c2)CC1 (stereo partly shown)

>  <Target desc>
SARS-CoV-2

>  <inhibition at 10 µM>
< 50%

$$$$
>  <Compound>
Cc1ccc(NC(=O)CCNc2cccc3c2C(=O)N(C2CCC(=O)NC2=O)C3=O)cc1C(=O)N[C@H](C)c1cccc2ccccc12 (stereo in doubt)

>  <Target desc>
SARS-CoV-2

>  <inhibition at 10 µM>
< 0%

$$$$
>  <Compound>
C[C@H](c1cccc2ccccc12)N1CCC(C(=O)NCc2cc(F)cc(NC(=O)N3CCN(CCOCCOCCOc4cccc5c4C(=O)N(C4CCC(=O)NC4=O)C5=O)CC3)c2)CC1 (stereo partly shown)

>  <Target desc>
SARS-CoV-2

>  <inhibition at 10 µM>
< 25%

$$$$
